subject-of-test: T1, KGF (hKGF) (Homo sapiens, UniProt P21781 P21781:32-194)
T1 sequence: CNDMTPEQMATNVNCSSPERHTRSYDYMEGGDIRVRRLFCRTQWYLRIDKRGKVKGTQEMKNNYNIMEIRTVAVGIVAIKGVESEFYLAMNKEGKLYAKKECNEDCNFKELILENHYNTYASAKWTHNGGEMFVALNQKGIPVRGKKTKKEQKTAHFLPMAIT
test-details: competition; PC-3 cells; 6.8 nM on NIH3T3/FGFR-2; 830 pM Balb/MK
assay-context: tags: Upstate Biotechnology; pseudoknot
readout: pKi
# log scale: pKi equals minus log10 of the concentration in mol/L

Request: So what's the measured pKi for this one? 6F (ssRNA, 2'-F pyrimidines) RNA: GGGAGGACGAUGCGGGAUCCUUUGUGGGCUCUUGUUGACCCCCUCGUUGUCCCCCCCAGACGACUCGCCCGA
Result: 9.80
